Source listed as patent US9822127B2.

test system: Vero76; conditions: African green monkey
RECORDED METRIC: CC50

# get_value(readout='CC50', item= COc1ccc(-c2cnc3c(NCCc4ccccc4)snc3c2)cc1OC )
>100 µg/mL

Same read-out for c1cc(-c2cnc3c(N4CCOCC4)snc3c2)co1 ?
>100 µg/mL

Same read-out for COc1ccc(-c2cnc3c(N4CCC(O)CC4)snc3c2)cc1OC ?
>100 µg/mL

* * *

assay: in vitro; conditions: African green monkey
Please go through the items and note down their CC50.

# get_value(readout='CC50', item= c1cc(-c2cnc3c(N4CCOCC4)snc3c2)co1 )
> 100 µg/mL

Same read-out for COc1ccc(-c2cnc3c(N4CCC(O)CC4)snc3c2)cc1OC ?
> 100 µg/mL

Same read-out for COc1ccc(-c2cnc3c(NCCc4ccccc4)snc3c2)cc1OC ?
> 100 µg/mL

* * *

biological target: GAK (Homo sapiens, UniProt O14976); construct: made in house; host or cells: T7 phage grown in E. coli host derived from BL21; assay: GAK binding assay (T7 phage kinase competition binding); details: single concentration of 10 μM; lower numbers indicate stronger hits; read-out: % Ctrl
Sequence (O14976 whole entry): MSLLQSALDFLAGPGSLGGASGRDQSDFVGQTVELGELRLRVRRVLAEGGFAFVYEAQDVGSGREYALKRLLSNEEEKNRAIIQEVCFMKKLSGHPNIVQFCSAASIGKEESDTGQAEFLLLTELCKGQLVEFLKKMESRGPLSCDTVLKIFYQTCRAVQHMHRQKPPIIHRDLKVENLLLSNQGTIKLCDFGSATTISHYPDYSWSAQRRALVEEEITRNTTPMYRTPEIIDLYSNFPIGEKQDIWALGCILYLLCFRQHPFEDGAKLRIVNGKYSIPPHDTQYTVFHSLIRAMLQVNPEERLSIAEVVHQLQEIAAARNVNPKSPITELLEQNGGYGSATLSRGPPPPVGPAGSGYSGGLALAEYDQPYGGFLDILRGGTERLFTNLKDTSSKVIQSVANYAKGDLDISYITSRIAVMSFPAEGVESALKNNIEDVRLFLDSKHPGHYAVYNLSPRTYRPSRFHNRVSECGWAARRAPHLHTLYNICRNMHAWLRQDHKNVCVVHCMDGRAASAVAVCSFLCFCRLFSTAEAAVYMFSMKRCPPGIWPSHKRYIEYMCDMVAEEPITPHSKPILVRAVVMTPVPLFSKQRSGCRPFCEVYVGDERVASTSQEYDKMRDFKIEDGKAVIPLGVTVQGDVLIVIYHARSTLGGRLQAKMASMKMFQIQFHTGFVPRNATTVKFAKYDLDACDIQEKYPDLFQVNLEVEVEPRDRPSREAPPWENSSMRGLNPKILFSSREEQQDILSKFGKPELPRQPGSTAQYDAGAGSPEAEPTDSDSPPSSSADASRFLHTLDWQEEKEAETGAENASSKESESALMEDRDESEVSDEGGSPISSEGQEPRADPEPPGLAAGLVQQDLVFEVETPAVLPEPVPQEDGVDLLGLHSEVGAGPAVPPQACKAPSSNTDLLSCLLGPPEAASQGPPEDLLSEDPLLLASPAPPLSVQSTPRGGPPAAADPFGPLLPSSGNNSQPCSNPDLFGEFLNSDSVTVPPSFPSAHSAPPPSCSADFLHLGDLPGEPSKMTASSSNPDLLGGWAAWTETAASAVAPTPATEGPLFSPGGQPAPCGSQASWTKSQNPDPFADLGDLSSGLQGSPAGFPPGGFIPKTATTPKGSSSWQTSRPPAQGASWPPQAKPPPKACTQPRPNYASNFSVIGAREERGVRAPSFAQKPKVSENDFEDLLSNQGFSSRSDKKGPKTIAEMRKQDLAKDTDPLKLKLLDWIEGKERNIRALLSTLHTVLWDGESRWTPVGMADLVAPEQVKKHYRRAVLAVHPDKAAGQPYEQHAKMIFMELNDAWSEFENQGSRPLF
Please go through the items and note down their remaining binding at 10 µM.
Express the result in % but write the number alone.

# get_value(readout='remaining binding at 10 µM', item= c1cc(-c2cnc3c(N4CCOCC4)snc3c2)cs1 [Example 27] )
0.1

Same read-out for COc1cc(OC)cc(-c2cnc3c(N4CCOCC4)snc3c2)c1 [Example 48] ?
0.2

Same read-out for CN1CCN(c2snc3cc(-c4ccsc4)cnc23)CC1 [Example 41] ?
7.4

Same read-out for Nc1snc2cc(-c3ccsc3)cnc12 [Example 8] ?
61

Same read-out for COc1cc(-c2cnc3c(N4CCOCC4)snc3c2)ccc1OC(C)=O [Example 47] ?
0

Same read-out for COc1ccc(-c2cnc3c(N4CCSCC4)snc3c2)cc1OC [Example 58] ?
0.8

Same read-out for c1cncc(-c2cnc3c(N4CCOCC4)snc3c2)c1 [Example 25] ?
25

Same read-out for COc1cc(-c2cnc3c(N4CCOCC4)snc3c2)ccc1O [Example 64] ?
0
